- assayText: Percent increase in life span of test animals compared to untreated tumor-bearing control group C animals at a dose of 50 mg/kg
- Format: functional
- runParameters: Mus musculus
observable: ILS at 50 mg/kg (%)
Number in %, nothing else.

CNC(=O)OCc1c(COC(=O)NC)c2n(c1C)CSC2 = 32
CNC(=O)OCc1c(COC(=O)NC)c2n(c1C)C[S+]([O-])C2 (centres undefined) = 13
CC(C)NC(=O)OCc1c(COC(=O)NC(C)C)c(-c2ccc(Cl)c(Cl)c2)n2c1CCC2 = 96

In the following, a different compound is considered.
(Q) Reported ILS at 50 mg/kg, compound CNC(=O)OCc1c(COC(=O)NC)c2n(c1C)CS(=O)(=O)C2 : ____
(A) 40

* * *

// values below are reported ILS at 12.5 mg/kg
- assayText: Percent increase in life span of test animals compared to untreated tumor-bearing control group B animals at a dose of 12.5 mg/kg
- Assay type: functional
- runParameters: Mus musculus
Number in %, nothing else.

(Q) Reported ILS at 12.5 mg/kg, compound CC(C)NC(=O)OCc1cn2c(c1COC(=O)NC(C)C)CCC2 : ____
(A) 20

(Q) Field entry: CC(C)NC(=O)OCc1c(COC(=O)NC(C)C)c(-c2ccc(Cl)c(Cl)c2)n2c1CCC2
(A) 45

(Q) Field entry: Cc1c(COC(=O)NC(C)C)c(COC(=O)NC(C)C)c2n1CS(=O)(=O)C2
(A) 42

(Q) Field entry: CC(C)NC(=O)OCc1c(COC(=O)NC(C)C)c(-c2ccc(Cl)c(Cl)c2)n2c1CS(=O)(=O)C2
(A) -13

* * *

- assayText: Antileukemic activity against Murine P388 lymphocytic leukemia, body weight difference of the test animals compared to control group B animals at a dose of 100 mg/kg
- Type: functional, Mus musculus
- Design: unit not given here
observable: BWD
Reply with the value as a number alone.

# annotated cases, reported BWD shown
Cc1c(COC(=O)NC(C)C)c(COC(=O)NC(C)C)c2n1CS(=O)(=O)C2 = -4
CC(C)NC(=O)OCc1c(COC(=O)NC(C)C)c(-c2ccc(Cl)c(Cl)c2)n2c1CS(=O)(=O)C2 = -2.3
CC(C)NC(=O)OCc1c(COC(=O)NC(C)C)c(-c2ccc(Cl)c(Cl)c2)n2c1CCC2 = -4.6

(Q) Reported BWD, compound CC(C)NC(=O)OCc1cn2c(c1COC(=O)NC(C)C)CCC2 : ____
(A) -3.6

* * *

- assayText: Antileukemic activity against Murine P388 lymphocytic leukemia, body weight difference of the test animals compared to control group B animals at a dose of 25 mg/kg
- Assay type: functional, Mus musculus
- Design: unit not given here
observable: BWD
Reply with the value as a number alone.

# annotated cases, reported BWD shown
CC(C)NC(=O)OCc1c(COC(=O)NC(C)C)c(-c2ccc(Cl)c(Cl)c2)n2c1CCC2 = -2.2
CC(C)NC(=O)OCc1cn2c(c1COC(=O)NC(C)C)CCC2 = -4.5
CC(C)NC(=O)OCc1c(COC(=O)NC(C)C)c(-c2ccc(Cl)c(Cl)c2)n2c1CS(=O)(=O)C2 = 0.4

In the following, a different molecule is considered.
(Q) Reported BWD, molecule Cc1c(COC(=O)NC(C)C)c(COC(=O)NC(C)C)c2n1CS(=O)(=O)C2 : ____
(A) -1.8
